B1: CHMP4C (parent)
chain: TNIRLPNVPSSSLPAQPNRKPGMS

Variants of: B1
Assay: protein stability index of a GFP-peptide fusion (GPS, HEK-293T) (PSI 1-6); higher = more stable;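 also: lentivirally expressed fusions sorted by FACS into six bins by GFP to DsRed ratio, PSI derived from sequencing read proportions per bin multiplied by bin number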
Conditions: c terminus: a fixed tail appended
Provide the reported protein stability index of each item.
Give bare numbers.

The cases that follow already have their protein stability index on record.
>>> measuredresult("I3W")
4.13
>>> measuredresult("L5N")
4.68
>>> measuredresult("P14K")
4.39
>>> measuredresult("T1K")
4.55
>>> measuredresult("P14W")
4.01

Could I get protein stability index for every one of these entries?
1. T1Y
2. R4W
3. P6N
4. S24C
5. M23C
6. A15L
7. S24Q

Marked response:
[3.71, 2.96, 4.18, 4.2, 4.84, 4.19, 4.69]

For each entry beneath this line, provide reported protein stability index.
1. P14S
2. K20G
3. S10F
4. S24H
5. S11V
6. P6S
7. G22C

Marked response:
1. 4.69
2. 4.39
3. 4.05
4. 4.5
5. 4.13
6. 4.44
7. 4.4

Parameters: items (list). Returns: protein stability index for each item.
1. S10V
2. N7E
3. P17K
4. R4L
5. L5H
6. Q16W
7. L13E
8. K20E

Marked response:
1: 4.2; 2: 4.26; 3: 4.61; 4: 4.26; 5: 4.62; 6: 3.34; 7: 4.25; 8: 4.27

Provide each entry's protein stability index from the list below.
1. Q16E
2. G22L

Marked response:
[4.69, 4.22]
